Target: CDK9/Cyclin K (Homo sapiens)
Sequence (P50750 whole entry): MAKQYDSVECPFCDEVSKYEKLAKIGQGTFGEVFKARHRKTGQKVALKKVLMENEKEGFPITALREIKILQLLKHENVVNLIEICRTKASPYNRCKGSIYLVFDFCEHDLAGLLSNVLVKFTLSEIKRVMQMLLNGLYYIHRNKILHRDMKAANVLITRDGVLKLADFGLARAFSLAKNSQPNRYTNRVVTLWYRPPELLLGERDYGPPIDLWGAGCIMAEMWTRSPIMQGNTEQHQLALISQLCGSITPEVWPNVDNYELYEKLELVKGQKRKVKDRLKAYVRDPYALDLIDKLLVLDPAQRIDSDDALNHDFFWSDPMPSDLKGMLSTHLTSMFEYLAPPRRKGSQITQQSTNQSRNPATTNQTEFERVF
Sequence (O75909 whole entry, further chain): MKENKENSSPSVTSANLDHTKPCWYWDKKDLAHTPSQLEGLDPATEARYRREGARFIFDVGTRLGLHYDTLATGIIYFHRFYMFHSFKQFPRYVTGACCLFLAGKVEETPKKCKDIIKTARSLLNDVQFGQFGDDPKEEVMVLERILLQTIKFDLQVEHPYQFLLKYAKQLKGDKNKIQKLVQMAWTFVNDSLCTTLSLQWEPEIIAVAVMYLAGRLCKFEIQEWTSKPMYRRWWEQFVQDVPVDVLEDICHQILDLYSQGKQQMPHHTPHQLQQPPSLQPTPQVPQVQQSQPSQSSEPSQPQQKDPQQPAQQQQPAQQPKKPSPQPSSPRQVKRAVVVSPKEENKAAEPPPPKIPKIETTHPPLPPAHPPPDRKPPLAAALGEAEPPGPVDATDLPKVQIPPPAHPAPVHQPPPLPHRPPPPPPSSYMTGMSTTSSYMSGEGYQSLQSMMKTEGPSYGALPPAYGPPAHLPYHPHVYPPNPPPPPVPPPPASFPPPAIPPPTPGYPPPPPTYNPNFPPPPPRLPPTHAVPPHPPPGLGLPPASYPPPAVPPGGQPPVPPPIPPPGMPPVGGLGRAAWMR
Experiment: biochemical
observation-type: log10 IC50 (log10 of the value in µM)
log10 IC50, µM

structure=CC(=O)Nc1cccc(Nc2nc(Nc3ccc(N4CCN(C)CC4)cn3)ncc2Cl)c1 study_target="CDK9/Cyclin K (Homo sapiens)" observation_type="log10 IC50" test_value=-1.40
structure=CC(C)c1ccccc1Nc1nc(Nc2ccc(N3CCN(C)CC3)cn2)ncc1Cl study_target="CDK9/Cyclin K (Homo sapiens)" observation_type="log10 IC50" test_value=0.42
structure=CC(C)c1ccc(Nc2nc(Nc3ccc(N4CCN(C)CC4)cn3)ncc2Cl)cc1 study_target="CDK9/Cyclin K (Homo sapiens)" observation_type="log10 IC50" test_value=0.96
structure=COc1cccc(CNc2nc(Nc3ccc(N4CCN(C)CC4)cn3)ncc2Cl)c1 study_target="CDK9/Cyclin K (Homo sapiens)" observation_type="log10 IC50" test_value=0.52

Could you now consider this next compound?
Ask: Any idea what log10 IC50 was measured for CCc1ccc(Nc2nc(Nc3ccc(N4CCN(C)CC4)cn3)ncc2Cl)cc1 ?
Reply: 0.84

----------
Biological target: CDK6/cyclin D3 (Homo sapiens, UniProt Q00534)
Sequence (P30281 whole entry): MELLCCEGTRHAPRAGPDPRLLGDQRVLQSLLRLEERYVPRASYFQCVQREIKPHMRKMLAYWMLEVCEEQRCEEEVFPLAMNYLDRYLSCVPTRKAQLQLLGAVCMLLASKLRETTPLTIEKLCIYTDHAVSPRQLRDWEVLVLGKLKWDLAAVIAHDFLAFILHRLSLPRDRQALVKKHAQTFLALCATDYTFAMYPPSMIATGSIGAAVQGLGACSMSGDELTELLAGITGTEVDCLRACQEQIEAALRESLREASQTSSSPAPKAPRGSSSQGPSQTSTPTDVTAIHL
Sequence (Q00534 whole entry): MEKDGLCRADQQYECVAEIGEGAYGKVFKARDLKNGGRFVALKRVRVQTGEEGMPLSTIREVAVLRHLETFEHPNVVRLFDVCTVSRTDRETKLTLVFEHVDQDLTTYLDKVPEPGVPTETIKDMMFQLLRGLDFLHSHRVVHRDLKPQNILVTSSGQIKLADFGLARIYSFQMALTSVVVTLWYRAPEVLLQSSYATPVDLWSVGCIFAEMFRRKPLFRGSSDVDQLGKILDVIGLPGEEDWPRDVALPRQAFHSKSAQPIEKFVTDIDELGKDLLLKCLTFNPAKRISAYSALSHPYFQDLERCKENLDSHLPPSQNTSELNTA
Set-up: species or system Sf9
observation-type: IC50

Examples from the recorded data:
structure=Cc1ccccc1Nc1nc(NC2CC2)ncc1Cl test_value="> 10 µM"
structure=Cc1ccccc1Nc1nc(NCCc2cccnc2)ncc1Cl test_value="> 10 µM"

Could you now consider this next molecule?
Ask: Any idea what IC50 was measured for COc1ccc(CCNc2nc(Nc3ccc(N4CCN(C)CC4)cn3)ncc2Cl)cc1 ?
Reply: > 10 µM

----------
System: MDA-MB-231
Test: Antiproliferative activity against human MDA-MB-231 cells assessed as inhibition of cell proliferation measured after 48 hrs by CCK8 assay
Type: functional, cell-based
Details: MDA-MB-231, 48 h
Listing of recorded GI50 by entry.

structure=Cc1ccccc1Nc1nc(Nc2ccccc2)ncc1Cl test_value="> 100 µM"
structure=COC[C@@H](C)N[C@H]1CC[C@H](Nc2cc(-c3cccc(NCC4(C#N)CCOCC4)n3)c(Cl)cn2)CC1 test_value="< 0.16 µM"
structure=CN1CCN(c2ccc(Nc3ncc(Cl)c(NCCc4ccccc4F)n3)nc2)CC1 test_value="> 100 µM"

Ask: Any idea what GI50 was measured for Cc1ccccc1Nc1nc(Nc2ccc(N3CCCCC3)cn2)ncc1Cl ?
Reply: > 100 µM

----------
Listing of recorded GI50 by entry.
Tested on: MDA-MB-231
Experiment: Antiproliferative activity against human MDA-MB-231 cells assessed as inhibition of cell proliferation measured after 48 hrs by CCK8 assay
Assay type: functional, cell-based
Settings: MDA-MB-231, 48 h

structure=CN1CCN(c2ccc(Nc3ncc(Cl)c(NCc4ccc(F)cc4)n3)nc2)CC1 observation_type=GI50 test_value="> 100 µM"
structure=Cc1ccc(Nc2ncc(Cl)c(Nc3ccccc3C)n2)cc1 observation_type=GI50 test_value="> 100 µM"

Ask: Notebook: pull reported GI50 for MDA-MB-231, entry Cc1ccccc1Nc1nc(NC2CCCCC2)ncc1Cl
Reply: > 100 µM

----------
Tested on: Jurkat
Assay: Antiproliferative activity against human Jurkat cells assessed as inhibition of cell proliferation measured after 48 hrs by CCK8 assay
Format: functional, cell-based
observation-type: GI50

Examples from the recorded data:
structure=Cc1ccccc1Nc1nc(Nc2ccncc2)ncc1Cl test_value="> 100 µM"
structure=CN1CCN(c2ccc(Nc3ncc(Cl)c(NCc4ccco4)n3)nc2)CC1 test_value="> 100 µM"
structure=Cc1ccccc1Nc1nc(NC2CC2)ncc1Cl test_value="> 100 µM"
structure=CCN1CCN(c2ccc(Nc3ncc(Cl)c(Nc4ccccc4C)n3)nc2)CC1 test_value="> 100 µM"
structure=CN1CCN(c2ccc(Nc3ncc(Cl)c(NCc4ccccc4)n3)nc2)CC1 test_value="> 100 µM"

Could you now consider this next compound?
Ask: Any idea what GI50 was measured for COC[C@@H](C)N[C@H]1CC[C@H](Nc2cc(-c3cccc(NCC4(C#N)CCOCC4)n3)c(Cl)cn2)CC1 ?
Reply: < 0.16 µM

----------
Listing of recorded GI50 by entry.
Tested on: MDA-MB-231
Test: Antiproliferative activity against human MDA-MB-231 cells assessed as inhibition of cell proliferation measured after 48 hrs by CCK8 assay
Format: functional, cell-based
Settings: MDA-MB-231, 48 h

Examples from the recorded data:
compound="CC(=O)c1c(C)c2cnc(Nc3ccc(N4CCNCC4)cn3)nc2n(C2CCCC2)c1=O [PALBOCICLIB]" study_target=MDA-MB-231 observation_type=GI50 test_value="> 100 µM"
compound=CCN1CCN(c2ccc(Nc3ncc(Cl)c(Nc4ccccc4C)n3)nc2)CC1 study_target=MDA-MB-231 observation_type=GI50 test_value="> 100 µM"

Ask: Any idea what GI50 was measured for Cc1ccccc1Nc1nc(NCc2ccco2)ncc1Cl ?
Reply: > 100 µM

----------
Listing of recorded GI50 by entry.
Tested on: MCF7
Assay: Antiproliferative activity against human MCF7 cells assessed as inhibition of cell proliferation measured after 48 hrs by CCK8 assay
Format: functional, cell-based
Details: MCF7, 48 h

Examples from the recorded data:
structure=Cc1ccccc1Nc1nc(Nc2ccc(N3CCCCC3)cc2)ncc1Cl test_value="> 100 µM"
structure=COc1ccc(CNc2nc(Nc3ccc(N4CCN(C)CC4)cn3)ncc2Cl)cc1 test_value="17.3 µM"
structure=CC(C)c1ccc(Nc2nc(Nc3ccc(N4CCN(C)CC4)cn3)ncc2Cl)cc1 test_value="1.88 µM"
structure=Cc1ccccc1Nc1nc(NC2CC2)ncc1Cl test_value="> 100 µM"

Could you now consider this next compound?
Ask: Any idea what GI50 was measured for Cc1ccccc1Nc1nc(NCCc2ccccn2)ncc1Cl ?
Reply: > 100 µM

----------
Molecular target: CDK6/cyclin D3 (Homo sapiens, UniProt Q00534)
pIC50: −log10 of the molar value.
observation-type: pIC50

Examples from the recorded data:
structure=Cc1ccccc1Nc1nc(Nc2cc(Cl)ccn2)ncc1Cl test_value="< 5.00"
structure=CN1CCN(c2ccc(Nc3ncc(Cl)c(NCc4ccc(F)cc4)n3)nc2)CC1 test_value="< 5.00"
structure=CN1CCN(c2ccc(Nc3ncc(Cl)c(Nc4ccccc4)n3)nc2)CC1 test_value=6.95
structure=COc1cc(Nc2ncc(Cl)c(Nc3ccccc3C)n2)ccn1 test_value="< 5.00"
structure=Cc1ccccc1Nc1nc(NCc2ccco2)ncc1Cl test_value="< 5.00"
structure=CN1CCN(c2ccc(Nc3ncc(Cl)c(NCc4ccccc4)n3)nc2)CC1 test_value="< 5.00"
structure=CC(C)c1cccc(Nc2nc(Nc3ccc(N4CCN(C)CC4)cn3)ncc2Cl)c1 test_value=6.34

Could you now consider this next compound?
Ask: Notebook: pull reported pIC50 for CDK6/cyclin D3 (Homo sapiens, UniProt Q00534), entry Cc1ccccc1Nc1nc(Nc2ccc(N3CCCN(C)CC3)cc2)ncc1Cl
Reply: 6.27

----------
Observed IC50, system CDK6/cyclin D3 (Homo sapiens).

structure=Cc1ccccc1Nc1nc(Nc2cccnc2)ncc1Cl study_target="CDK6/cyclin D3 (Homo sapiens)" observation_type=IC50 test_value="6650 nM"
structure=COc1ccc(CNc2nc(Nc3ccc(N4CCN(C)CC4)cn3)ncc2Cl)cc1 study_target="CDK6/cyclin D3 (Homo sapiens)" observation_type=IC50 test_value="640 nM"
structure=Cc1ccccc1Nc1nc(Nc2ccc(N3CCN(C)CC3)cn2)ncc1Cl study_target="CDK6/cyclin D3 (Homo sapiens)" observation_type=IC50 test_value="15.7 to 16 nM"
structure=Cc1ccccc1Nc1nc(Nc2ccc(N3CCOCC3)cn2)ncc1Cl study_target="CDK6/cyclin D3 (Homo sapiens)" observation_type=IC50 test_value="46 nM"

Ask: Notebook: pull reported IC50 for CDK6/cyclin D3 (Homo sapiens), entry Cc1ccccc1Nc1nc(Nc2ccccc2)ncc1Cl
Reply: > 10000 nM

Ask: Notebook: pull reported IC50 for CDK6/cyclin D3 (Homo sapiens), entry Cc1ccccc1Nc1nc(NC2CCCCC2)ncc1Cl
Reply: > 10000 nM

Ask: Notebook: pull reported IC50 for CDK6/cyclin D3 (Homo sapiens), entry CN1CCN(c2ccc(Nc3ncc(Cl)c(NCc4ccco4)n3)nc2)CC1
Reply: 279 nM

Ask: Notebook: pull reported IC50 for CDK6/cyclin D3 (Homo sapiens), entry CC(C)c1ccccc1Nc1nc(Nc2ccc(N3CCN(C)CC3)cn2)ncc1Cl
Reply: 33 nM

----------
System: MCF7
Experiment: Antiproliferative activity against human MCF7 cells assessed as inhibition of cell proliferation measured after 48 hrs by CCK8 assay
Format: functional, cell-based
Settings: MCF7, 48 h
observation-type: GI50 (µM)
Express the result in µM but write the number alone.

Examples from the recorded data:
structure=CC(C)c1ccccc1Nc1nc(Nc2ccc(N3CCN(C)CC3)cn2)ncc1Cl study_target=MCF7 test_value=4.36
structure=Cc1ccccc1Nc1nc(Nc2ccccn2)ncc1Cl study_target=MCF7 test_value=31.4
structure=Cc1ccccc1Nc1nc(Nc2ccncc2)ncc1Cl study_target=MCF7 test_value=98.5

Ask: Any idea what GI50 was measured for COc1cccc(Nc2nc(Nc3ccc(N4CCN(C)CC4)cn3)ncc2Cl)c1 ?
Reply: 7.54

Ask: Any idea what GI50 was measured for CC(C)c1cccc(Nc2nc(Nc3ccc(N4CCN(C)CC4)cn3)ncc2Cl)c1 ?
Reply: 8.64

Ask: Any idea what GI50 was measured for Cc1ccccc1Nc1nc(Nc2ccc(N3CCNCC3)cn2)ncc1Cl ?
Reply: 3.41

Ask: Any idea what GI50 was measured for CN1CCN(c2ccc(Nc3ncc(Cl)c(Nc4ccccc4)n3)nc2)CC1 ?
Reply: 51.8

Ask: Any idea what GI50 was measured for CN1CCN(c2ccc(Nc3ncc(Cl)c(NCCc4ccccc4)n3)nc2)CC1 ?
Reply: 11.8

Ask: Any idea what GI50 was measured for Cc1ccc(CNc2nc(Nc3ccc(N4CCN(C)CC4)cn3)ncc2Cl)cc1 ?
Reply: 38.1

Ask: Any idea what GI50 was measured for Cc1ccccc1Nc1nc(Nc2ccc(N3CCN(C)CC3)cc2)ncc1Cl ?
Reply: 20.6

Ask: Any idea what GI50 was measured for COc1cccc(CNc2nc(Nc3ccc(N4CCN(C)CC4)cn3)ncc2Cl)c1 ?
Reply: 19.5
